Data provenance is the supplement of paper PMC12636033.

Can you tell me PBM 8-mer E-score for the items I'm about to list?
Tested on: muMax20 (Max(13-93) K31hArg/K57hArg, M65Nle)
Measurement Notes: PBM 8-mer E-score (E-score (rank enrichment, -0.5 to 0.5)); higher = stronger preferential binding
In all, about 33,000 sequences were measured (“E-score (rank enrichment, -0.5 to 0.5)”: median about -0.0068, highest 2% from about 0.24 on). Many of the other results were omitted from the sample, so the highest values are more common in it than they were.
Answer using only a numeral; do not append any unit.

For the sequence ACATAATA , give its reported PBM 8-mer E-score.
0.294

Indicate its recorded PBM 8-mer E-score; the sequence in question is CGCCCTGA
-0.0272

Name the recorded PBM 8-mer E-score of the sequence listed here: GCATAATA
0.239

Indicate its recorded PBM 8-mer E-score; the sequence in question is ATCCGGTA
-0.00311

Determine from records and report PBM 8-mer E-score for CGGTCGGC
-0.287

State its PBM 8-mer E-score: ACTTCCGC
-0.0937

Assign PBM 8-mer E-score to the following record: CCTCATCA
-0.0311

Give PBM 8-mer E-score for CGCTGATA
-0.0375

Return the recorded PBM 8-mer E-score value; entry: ATACACAG
0.0766

Please list PBM 8-mer E-score recorded for the sequence TGCTTAAA
0.024

Give the value of PBM 8-mer E-score reported for the following: CATGACAA
0.209

Give the measured PBM 8-mer E-score for TGGCGGAA
-0.0751

Look up and report measured PBM 8-mer E-score for this entry: ACATAATG
0.231

Please report the measured PBM 8-mer E-score for AATGACAC
0.161

Item AATGACAA : provide PBM 8-mer E-score
0.241

Supply PBM 8-mer E-score value. Item: GGGCTTGA
-0.165

Provide measured PBM 8-mer E-score value, entry: AGACATAG
-0.014

Give the measured PBM 8-mer E-score for ATCCCCGG
-0.16

Quickly give me recorded PBM 8-mer E-score for GCATAAGA
0.107

Report measured PBM 8-mer E-score; entry is ATAGATGA
0.0906

Identify measured PBM 8-mer E-score corresponding to ATACATAG
0.181

# return recorded PBM 8-mer E-score for input CTACATAC
0.178

###

Tested on: muMax20 (Max(13-93) K31hArg/K57hArg, M65Nle)
Measurement Notes: PBM 8-mer E-score (E-score (rank enrichment, -0.5 to 0.5)); higher = stronger preferential binding
The full ranking holds about 33,000 sequences; the median of “E-score (rank enrichment, -0.5 to 0.5)” is about -0.0068, and the highest 2% start at about 0.24. The list comes from a sample in which the highest values are over-represented; it also holds close analogues and randomly drawn sequences.
Class assignment keyed on PBM 8-mer E-score, ranges bottom (below -0.01), middle (-0.01 to below 0.2), top (0.2 or more)

# bin lookup: classify ATAATGAC by its PBM 8-mer E-score
middle

Please let me know in which category the item CCACGGGG belongs.
bottom

// return the class label for ACGAAAAA
middle

Band assignment needed for CTAGCGAC please.
bottom

Could you tell me which band AGTAATCA belongs to?
middle

# bin label for CAAAACAC
bottom

Bin this entry: AAAAACAC
top

Place this sequence in its band: CACGCGAA
middle

Textbook exercise: identify the category of the sequence given here, GAAGAAAA , according to its measured value.
middle

Which of the defined bands does the recorded PBM 8-mer E-score of CCATGGTC sit within?
bottom

Kindly identify the class of AACTTCTC .
bottom

Into which bin does this sequence go? GAAGAAAC
top

Just checking, what class would you give CACGCGGC here?
top

# bin label for CACGCGAC
top

For the record CATGGACG , report the class its PBM 8-mer E-score corresponds to.
middle

Which PBM 8-mer E-score category applies to CCTCCTAA here?
middle

Categorize the following entry: GAACCCAA
bottom

Where would CACTAGGG land among the classes by reported PBM 8-mer E-score?
bottom

Determine which band this sequence sits in: ACGTGACG
top

# bin lookup: classify AACCCCAA by its PBM 8-mer E-score
top

In plain terms, what class is ACATGGTC ?
top

Lab log: ATCCTAGC — assign PBM 8-mer E-score category
top

Please let me know in which category the item AGGTTTCA belongs.
bottom

Sort into band: CACGCGGA
top

Please indicate the class for CACGCGGG based on its PBM 8-mer E-score.
middle

Assign a bin to AACGCGGA
bottom

Please report the category associated with GAGGACCC , nothing else.
bottom

Band assignment needed for CACGGGAG please.
middle

Which PBM 8-mer E-score band matches ACATGCTA ?
middle

Which category does the recorded PBM 8-mer E-score put CTTCTACC in?
middle

Which PBM 8-mer E-score band matches CAATGGTA ?
middle

Sort into band: ATCCTTGG
bottom

Looking at GAAAACAC , which class would you pick?
middle

Which of the defined bands does the recorded PBM 8-mer E-score of AAATGGTA sit within?
top

Which category does the recorded PBM 8-mer E-score put CACCGGAG in?
bottom

Which category does the recorded PBM 8-mer E-score put ATCCAGCC in?
bottom

Hi, small favor: classify GGGGCGAA by its PBM 8-mer E-score when you get a moment.
middle

For the record ACCCCCAA , report the class its PBM 8-mer E-score corresponds to.
bottom

Hi there! Could you help me figure out the category for CAAGAAAC please?
middle

Category of AACCCCCA , please.
bottom

Class (by measured PBM 8-mer E-score) for GCGTGACC
middle

Class? Entry: GACGCGGC
bottom

Form: Item = ACGAAAAC ; Class = ?
top

Category of TAATGGTA :
middle

Please indicate the class for GCGCTTCA based on its PBM 8-mer E-score.
bottom
